Molecular target: ScSla1-D1-D2
Test: SPOT peptide array binding signal intensity (averaged, normalized) (arbitrary units (background-subtracted, floor 0; scale differs between SH3 domains)); higher = stronger binding of the SH3 domain to the peptide
Classification field: Yes = SPOT peptide array binding signal intensity at or over 60; No = SPOT peptide array binding signal intensity under 60.

binder | class_assignment
NILKRRPLKLEAPSK | No
TSFKGRPKPPKTLKH | Yes
ISPPASPPPEFDFSK | No
TKIRRRPQQPLTDFT | Yes
HAPPLPPTAPPPPSL | No
NPNRRAPRRPLSTQH | Yes
RPPRPPPKPLHLRTE | Yes
EVTPKVPERPSRRKT | Yes
IRMPSNPALPKKLLN | Yes
TYNRTAFQIPGDQSI | No
PPLPRAPPVPPATFE | No
NLKKRPPTAPQRKIS | Yes
SNRRPVPRRPSQPLN | Yes
GSKSGPPPRPKKPST | No
EAEEAAPQLPSRSSA | No

Value source: the supplement of paper PMC4466140
